Tested on: 786-0 renal
Assay: NCI tumour cell line growth inhibition, 48 h; in the data active = GI50 below about 0.43 µM; inactive = the rest
// classify into active, inactive

{"MOLECULE": "O=C(/C=C/c1cn(-c2ccccc2)nc1-c1ccc([N+](=O)[O-])cc1)c1ccc(Cl)cc1", "MEASURED_TARGET": "786-0 renal", "LABEL_CLASS": "inactive"}
{"MOLECULE": "O=c1oc2ccc(F)cc2c(=O)n1-c1ccc(Br)cc1F", "MEASURED_TARGET": "786-0 renal", "LABEL_CLASS": "inactive"}

Query: // return assay outcome for O=C(Nc1ccc(Cl)cc1)Nc1ccccc1CNc1nc(Nc2ccc(OCCN3CCCC3)cc2)ncc1Cl
Response: inactive

Query: Tell me the assay call for C/C(=N\n1c(N)c(C#N)c(-c2ccc(Cl)cc2)c(C#N)c1=O)c1ccncc1 please.
Response: inactive

Query: recorded result category for CC(=O)[CH-]C(=O)c1ccccc1.CC(=O)[CH-]C(=O)c1ccccc1.[CH2-]CCC.[CH2-]CCC.[Sn+4] in this test
Response: inactive

Query: What classification did Cn1cc(CO)c2ccccc21 end up with in this test?
Response: inactive

Query: What classification did CCN(CC)CCOc1ccc(/C=C2\CC3C4CC=C5C[C@@H](OC(C)=O)CC[C@]5(C)C4CC[C@]3(C)C2=O)cc1OC (some centres not stated) end up with in this test?
Response: inactive

---

Tested on: RPMI-8226 leukemia
Assay: NCI tumour cell line growth inhibition, 48 h
QUANTITY_MEASURED: TGI

Sample records with TGI:
{"COMPOUND": "COc1ccc(NC(=O)c2sc3nc4c(cc3c2N)CCCC4)cc1", "MEASURED_TARGET": "RPMI-8226 leukemia", "ENDPOINT_RESULT": "12.1 µM"}
{"COMPOUND": "COc1ccc(C(=O)c2ccc(-n3cc(/C=C/[N+](=O)[O-])c4ccccc43)cc2)cc1", "MEASURED_TARGET": "RPMI-8226 leukemia", "ENDPOINT_RESULT": "> 100 µM"}
{"COMPOUND": "COc1ccc(C(=O)C[C@]2(O)C(=O)Nc3c(Cl)ccc(Cl)c32)cc1", "MEASURED_TARGET": "RPMI-8226 leukemia", "ENDPOINT_RESULT": "30 µM"}

Query: Suppose we examine the compound CC1=C2NCN(C)N=C2C(C#N)(C#N)C1(C#N)C#N ; what TGI value has been reported?
Response: 37.3 µM

Query: Recorded TGI of CC(=O)Nc1ccc(C(=O)N2N=C(C)/C(=C/c3ccc(O)cc3)C2=O)cc1 , please.
Response: > 100 µM

Query: Item under review: CC1=C(C(=O)CC(=O)C(=O)NC2C3CC4CC(C3)CC2C4)Sc2ccccc2N1 (configuration not stated) . Reported TGI?
Response: > 100 µM

Query: For the compound shown here, O=[N+]([O-])C1C2C=CC(C2)[C@H]1c1ccc(Cl)cc1Cl (some centres not stated) , give the reported TGI.
Response: 69.1 µM

Query: What does the data say about its TGI? Entry: CN(C)CCCC1(c2ccc(F)cc2)OCc2cc(-c3cncc4ccccc34)ccc21 (configuration not stated)
Response: 5.96 µM

Query: Recorded TGI for COc1ccc(-c2nc3c(c(=O)n2C(C)=O)C(c2ccc(Cl)cc2)c2sc4c(Cl)cccc4c2O3)cc1 (configuration not stated) , please?
Response: 5.1 µM
